study-system: human Fc fusion protein of the extracellular domain of mouse ROR1 (Mus musculus (Mouse)., UniProt Q9Z139)
Sequence (Q9Z139 30-406): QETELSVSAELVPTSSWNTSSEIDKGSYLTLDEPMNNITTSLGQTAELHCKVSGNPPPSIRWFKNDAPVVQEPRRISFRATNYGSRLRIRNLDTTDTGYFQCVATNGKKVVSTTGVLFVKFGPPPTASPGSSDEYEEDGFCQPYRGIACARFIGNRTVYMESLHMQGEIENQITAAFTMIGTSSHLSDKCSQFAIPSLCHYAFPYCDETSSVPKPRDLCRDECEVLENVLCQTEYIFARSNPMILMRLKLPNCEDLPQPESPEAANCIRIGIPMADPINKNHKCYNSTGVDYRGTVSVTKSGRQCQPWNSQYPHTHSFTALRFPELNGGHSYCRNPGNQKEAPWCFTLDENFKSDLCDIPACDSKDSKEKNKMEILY
procedure-text: ELISA
outcome-measure: binding result

* chimeric rabbit/human anti-human ROR1 Fab ERR1-TOP22 (Fab, V domains shown) VH: QSLEESGGRLVTPGTPLTLTCTVSGFSLSSYYMSWVRQAPGKGLEWIGTISSSGSTYYASWVKGRFTISKTSTTVDLKMTSLTTEDTATYFCARDLDYDMDLWGPGTLVTVSS VL: SYELTQLPSVSVSLGQTARITCGGNSIGSKAVHWYQQKPGLAPGLLIYNDDERPSGVPDRFSGSNSGDTATLTISGAQAGDEADYYCQLWDNNAAVFGGGTQLTVT | binds
